Origin of values: patent US10513547B2

Biological target: HLA-A*02:01 (Homo sapiens, UniProt P04439, D140Y/D185E/D98H/E176V/E277Q/G131W/G231S/I119V/I121R/I166T/I218V/L300P/L318F/N151K/N90K/P208A/P217A/Q86G/Q94H/R138H/R169H/T345S)
Assay: MHC binding assay (UV-ligand exchange, beta2m ELISA, peptide exchange yield)
Details: binding to HLA-A*02:01
measured_quantity: Peptide exchange (MHC class I binding score, peptide exchange yield)

substance="190 (AMAEMVLQV; listed as Homo sapiens) [compound 190]" result="“+++” (≥50 = +++)"
substance="153 (ILFSEDSTKLFV; listed as Homo sapiens) [compound 153]" result="“+++” (≥50 = +++)"
substance="20 (YLKDGDVML; listed as Homo sapiens) [compound 20]" result="“+++” (≥50 = +++)"
